- procedure-details: Cytotoxicity against human SUP-T1 cells assessed as reduction in cell viability measured after 16 hrs by MTT assay
- Format: cell-based
measure-name: CC50 at 16 h (µM)
Give the value, in units of µM, as a plain number.

CCOC(=O)C1=C(C)NC(=S)NC1c1ccc(O)c(OC)c1 (stereo unspecified) ... 101

Challenge: Recorded CC50 at 16 h of CCOC(=O)C1=C(C)NC(=S)NC1c1ccc(O)cc1 (stereo unspecified) , please.
Response given: 88.9

Challenge: Again, but for CCOC(=O)C1=C(C)NC(=O)NC1c1ccc(O)c(OC)c1 (stereo unspecified)
Response given: 141

Challenge: Again, but for CCOC(=O)C1=C(C)NC(=O)NC1c1cc(Br)ccc1O (stereo unspecified)
Response given: 138

Challenge: Again, but for CCOC(=O)C1=C(C)NC(=S)NC1c1ccc(Br)cc1 (stereo unspecified)
Response given: 136

Challenge: Again, but for CCOC(=O)C1=C(C)NC(=S)NC1c1cccc(Cl)c1 (stereo unspecified)
Response given: 97.6
